B1: HDV Ribozyme (parent)
chain: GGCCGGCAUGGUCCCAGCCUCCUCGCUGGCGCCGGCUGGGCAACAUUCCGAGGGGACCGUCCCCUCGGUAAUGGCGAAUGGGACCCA

variants of: B1; experiment: self-cleavage, relative activity (ratio to wild type); higher = more cleavage; co-transcriptional
REPORTED_ENDPOINT: self-cleavage
In your answer, state the number alone without any accompanying words.

## Input Record request: self-cleavage value, item G29A A51C
## Output 0.121

## Input Record request: self-cleavage value, item G59C C64U
## Output 1.14

## Input Record request: self-cleavage value, item C57A G74C
## Output 0.108

## Input Record request: self-cleavage value, item C13U G76C
## Output 0.772

## Input Record request: self-cleavage value, item U27G C36G
## Output 0.0665

## Input Record request: self-cleavage value, item G54A A87U
## Output 0.922

## Input Record request: self-cleavage value, item U37C U69C
## Output 0.89

## Input Record request: self-cleavage value, item G5A U65C
## Output 0.308

## Input Record request: self-cleavage value, item C4G G82C
## Output 0

## Input Record request: self-cleavage value, item C18A A78U
## Output 0.128

## Input Record request: self-cleavage value, item U46A G73C
## Output 0.317

## Input Record request: self-cleavage value, item G25U C58U
## Output 0.217

## Input Record request: self-cleavage value, item G31C U72C
## Output 0.262

## Input Record request: self-cleavage value, item C62U A77G
## Output 0.831

## Input Record request: self-cleavage value, item U65G U79C
## Output 0.19

## Input Record request: self-cleavage value, item G59A G80A
## Output 0.305

## Input Record request: self-cleavage value, item C58A G74A
## Output 0.426

## Input Record request: self-cleavage value, item A43C G73A
## Output 0.407

## Input Record request: self-cleavage value, item C3G C4U
## Output 0.0171

## Input Record request: self-cleavage value, item C19U C61U
## Output 0.0898

## Input Record request: self-cleavage value, item A8U G10C
## Output 0.639

## Input Record request: self-cleavage value, item U23C U27G
## Output 1.06
